test system: T. cruzi Tulahuen strain in L929 cells; assay: Anti-Trypanosoma cruzi activity assay (infected L929 cells, beta-galactosidase reporter); format: cell-based; conditions: T. cruzi; activity status from IC50 and SI
Test Readout: Status

molecule="O=C1C(c2c(F)cccc2Cl)N(c2ccccc2)C(=O)CN1c1ccc(Cl)cc1 (stereo not shown) [Compound 22]" test_readout=Status reported_result=ACTIVE
molecule="COc1ccc(C2C(=O)N(c3ccc(Cl)cc3)CC(=O)N2c2ccccc2)cc1Br (stereo not shown) [Compound 8]" test_readout=Status reported_result=ACTIVE

* * *

assay: Cytotoxicity on L929 cells (AlamarBlue); assay type: cell-based; conditions: mouse, L929 mouse fibroblast cells
Measured CC50 at 96 h, listed per entry for reference.
Test Readout: CC50 at 96 h (µg/mL)

compound="O=C1C(c2ccc(O)c(Br)c2)N(c2ccccc2)C(=O)CN1c1ccc(Cl)cc1 (stereo not shown)" value_unit=µg/mL comparison_sign== reported_result=81.8
compound="COc1ccc(C2C(=O)N(c3ccc(Cl)cc3)CC(=O)N2c2ccccc2)cc1Br (stereo not shown)" value_unit=µg/mL comparison_sign=> reported_result=400
compound="O=C1C(c2ccccc2F)N(c2ccccc2)C(=O)CN1c1ccc(Cl)cc1 (stereo not shown)" value_unit=µg/mL comparison_sign== reported_result=29.2
compound="O=C(Cn1ccnc1[N+](=O)[O-])NCc1ccccc1 [Benznidazole, reference compound]" value_unit=µg/mL comparison_sign== reported_result=540
compound="O=C1C(c2ccc(Cl)cc2)N(c2ccc(F)cc2)C(=O)CN1c1ccc(Cl)cc1 (stereo not shown)" value_unit=µg/mL comparison_sign== reported_result=16.8
compound="O=C1C(c2ccccc2F)N(c2ccc(F)cc2)C(=O)CN1c1ccc(Cl)cc1 (stereo not shown)" value_unit=µg/mL comparison_sign== reported_result=32.1
compound="O=C1C(c2c(F)cccc2Cl)N(c2ccccc2)C(=O)CN1c1ccc(Cl)cc1 (stereo not shown)" value_unit=µg/mL comparison_sign=> reported_result=400

* * *

system: Leishmania infantum (MHOM/BR/1974/PP75) in THP-1 macrophages; test: Anti-Leishmania infantum activity assay (infected THP-1 macrophages, red fluorescence); type: cell-based; conditions: Leishmania infantum; L. infantum in THP-1 macrophages, 72 h
Measured IC50, listed per entry for reference.
Test Readout: IC50 (µg/mL)

compound="CC(=O)Nc1ccc(C2C(=O)N(c3ccc(Cl)cc3)CC(=O)N2c2ccccc2)cc1 (centres unmarked)" assay_system="Leishmania infantum (MHOM/BR/1974/PP75) in THP-1 macrophages" comparison_sign== reported_result=16
compound="O=C1C(c2ccc(Cl)cc2)N(c2ccccc2)C(=O)CN1c1ccc(Cl)cc1 (centres unmarked)" assay_system="Leishmania infantum (MHOM/BR/1974/PP75) in THP-1 macrophages" comparison_sign== reported_result=35.7
compound="C[C@@H]1[C@H](O)[C@@H](C)/C=C/C=C/C=C/C=C/C=C/C=C/C=C/[C@H](O[C@@H]2O[C@H](C)[C@@H](O)[C@H](N)[C@@H]2O)C[C@@H]2O[C@](O)(C[C@@H](O)C[C@@H](O)[C@H](O)CC[C@@H](O)C[C@@H](O)CC(=O)O[C@H]1C)C[C@H](O)[C@H]2C(=O)O [Amphotericin B, reference compound]" assay_system="Leishmania infantum (MHOM/BR/1974/PP75) in THP-1 macrophages" comparison_sign== reported_result=0.228
compound="COc1ccc(OC)c(C2C(=O)N(c3ccc(Cl)cc3)CC(=O)N2c2ccccc2)c1 (centres unmarked)" assay_system="Leishmania infantum (MHOM/BR/1974/PP75) in THP-1 macrophages" comparison_sign== reported_result=50.8
compound="CN(C)c1ccc(C2C(=O)N(c3ccc(Cl)cc3)CC(=O)N2c2ccccc2)cc1 (centres unmarked)" assay_system="Leishmania infantum (MHOM/BR/1974/PP75) in THP-1 macrophages" comparison_sign== reported_result=49.1
compound="O=C1C(c2ccc(F)cc2)N(c2ccccc2)C(=O)CN1c1ccc(Cl)cc1 (centres unmarked)" assay_system="Leishmania infantum (MHOM/BR/1974/PP75) in THP-1 macrophages" comparison_sign== reported_result=38.2
compound="CCc1ccc(C2C(=O)N(c3ccc(Cl)cc3)CC(=O)N2c2ccccc2)cc1 (centres unmarked)" assay_system="Leishmania infantum (MHOM/BR/1974/PP75) in THP-1 macrophages" comparison_sign=> reported_result=100
compound="O=C1C(c2ccc(O)cc2)N(c2ccccc2)C(=O)CN1c1ccc(Cl)cc1 (centres unmarked)" assay_system="Leishmania infantum (MHOM/BR/1974/PP75) in THP-1 macrophages" comparison_sign== reported_result=8.3
